Item-by-item account of TGI
System: NCI-H460 lung
Experiment: NCI tumour cell line growth inhibition, 48 h
Where a SMILES comes first, the peptide text is derived from it.

compound	TGI
O=C(Cn1c2ccccc2c2ccncc21)N/N=C\c1ccc2ccccc2c1	39.9 µM
Cc1ncc(CO)c(C=NCCCCCCN=Cc2c(CO)cnc(C)c2O)c1O	> 100 µM
N#Cc1c(N2CCOCC2)ncn(-c2ccc(Cl)cc2)c1=O	> 100 µM
O=C(O)CN=c1c2ccccc2n(O)c2ccccc12	> 100 µM
CN(C)C(=S)SCC(N)=O	> 100 µM
O=c1[nH]nc(-c2ccccc2)c2c(-c3ccccc3)onc12	> 62.6 µM
COc1cc(-c2oc3c(OC)c(O)cc(O)c3c(=O)c2OC)ccc1O	> 93.5 µM
O=C1c2ccn(CCCCN(CCO)CCO)c2C(=O)c2c1c(O)c1ccccc1c2O	26.1 µM
CC(=O)NC(CO)C(=O)NC(Cc1ccc(O)cc1)C(=O)NCC(N)=O (stereo not drawn) (Ac-Ser-Tyr-Gly-NH2; configuration not given here)	> 100 µM
CC1=NN(C(=O)c2nn(-c3ccc(Cl)cc3)cc2O)C(=O)C1	> 52.7 µM
CCOC(=O)c1c(NC(=O)c2ccc(Br)cc2)sc2c1CCCC2	20 µM
O=C(O)CO/N=C1/C(c2c(O)[nH]c3ccccc23)=Nc2ccccc21	> 100 µM
Clc1ccc(/C=C/c2nc(Cl)c(-c3ccc(Cl)cc3)c(Cl)n2)cc1	> 100 µM
CCOC(=O)C(=O)Nc1cccc(C)c1C	> 100 µM
COC(=O)C1=C(c2ccc(Cl)cc2)C(O)N=C(NN)N1 (stereo not drawn)	> 100 µM
Nc1cc(N)c(N=Nc2cccc3c(S(=O)(=O)O)cccc23)cc1N=Nc1cc([N+](=O)[O-])ccc1O	74.1 µM
CCOC(=O)c1cn(CC)c2cc3c(cc2c1=O)SCS3	> 100 µM
COc1cc(Cc2ccc3c(c2C#N)N(C)c2ccccc2S3)cc(OC)c1OC	> 100 µM
Oc1ccc(O)c2c1C1(Cl)C(Cl)=C(Cl)C2(Cl)C1(Cl)Cl	8.94 µM
O=C(O)c1cc(=O)c2cc(C(=O)c3cccs3)c(Cl)c(Cl)c2o1	> 100 µM
COc1cc2nncc(SCc3ccc(Cl)c(Cl)c3)c2cc1OC	> 100 µM
O=C1c2c(ccc3c2CCCC3)CC1Cc1ccc2c(c1)CCCC2 (stereo not drawn)	> 100 µM
Cc1cccc(N=C2NC(=O)C(CC(=O)Nc3ccccc3Cl)S2)c1 (stereo not drawn)	> 100 µM
C#CC(O)Cc1ccc(OC)c2occc12 (stereo not drawn)	> 100 µM
CC(C)OP(=O)(OC(C)C)C(Nc1cccc(C(F)(F)F)c1)c1ccccc1 (stereo not drawn)	> 100 µM
Cc1ccc(-c2c3c(N)c4c(nc3nc3c2c(C)nn3-c2ccccc2)CCC4)cc1	4.44 µM
Cc1cc(C#N)c(Nc2ccccc2[N+](=O)[O-])s1	> 100 µM
CSc1nc(C)c(CCCl)c(Cl)n1	> 100 µM
O=c1[nH]cnc2c1ncn2CCCCO	> 100 µM
CCCOP(=S)(N1CC1)N1CC1	> 100 µM
NCCSC(C[N+](=O)[O-])c1ccccc1Cl (stereo not drawn)	32 µM
CC[C@H](C)[C@H]1NC(=O)[C@@H](NC(=O)[C@@H](CC(C)C)N(C)C(=O)C2CCCN2C(=O)[C@H](C)O)[C@@H](C)OC(=O)[C@H](Cc2ccccc2)N(C)C(=O)[C@@H]2CCCN2C(=O)[C@H](CC(C)C)NC(=O)[C@@H](C)C(=O)[C@H](C(C)C)OC(=O)C[C@@H]1O (stereo partly drawn)	< 0.00625 µM
Cc1ccc(-n2cc(-c3ccc(Cl)cc3)c(C#N)c2N)cc1	30.4 µM
NNC(=S)N/N=C(/C(=O)Nc1ccc([N+](=O)[O-])cc1)c1nc2ccc([N+](=O)[O-])cc2[nH]c1=O	> 100 µM
Cc1cn2c(/C=C3/C(=O)Nc4ccccc43)c(C)nc2s1	16.1 µM
c1ccc(CSC(SCc2ccccc2)c2ccc3c(c2)OCO3)cc1	> 10 µM
CC(=O)C1=NN(c2ccccc2)C2(S1)SC(c1ccccc1)(c1ccccc1)c1ccccc12 (stereo not drawn)	> 100 µM
COC(=O)c1nc(N)nc(C(=O)OC)c1C(=O)c1ccccc1	> 100 µM
CCCN(CCC)C(=O)c1c(Cl)c2cccnc2n2c(C)cnc12	> 100 µM
NCCC1([N+](=O)[O-])CCNCC1	> 100 µM
O=C1NN=C(c2ccc([N+](=O)[O-])cc2)C1n1nc(-c2ccccc2)c2ccccc2c1=O (stereo not drawn)	> 100 µM
CC(C)(C)N=c1n(C(C)(C)C)oc(=O)n1-c1ccccc1	> 50 µM
NC(=S)N/N=C/c1ccc(OC(=O)COc2ccccc2Cl)cn1	> 100 µM

// provenance: PubChem BioAssay (NCI)
